Some molecules, each annotated with its measured melting point.
MEASUREMENT KIND: melting point

>>> recorded_result("CN(C)CCNC1=CC(=O)c2sc(C(=O)N3CCN(S(C)(=O)=O)CC3)nc2C1=O [Example 19]")
"201 to 202 °C"
>>> recorded_result("CN(C)CCNC1=CC(=O)c2sc(C(=O)NCCOCCOCCNC(=O)OC(C)(C)C)nc2C1=O [Example 2]")
"55 to 57 °C"
>>> recorded_result("COCCN(CCOC)C(=O)c1nc2c(s1)C(=O)C=C(NCCN(C)C)C2=O [Example 4]")
"92 to 94 °C"
>>> recorded_result("CCNC(=O)c1nc2c(s1)C(=O)C=C(NCCc1ccc(F)cc1)C2=O [Example 39]")
"260 to 261 °C"
>>> recorded_result("CN(C)CCNC1=CC(=O)c2sc(C(=O)NCCCN3CCCC3=O)nc2C1=O [Example 5]")
"154 to 156 °C"
>>> recorded_result("CN(C)CCNC1=CC(=O)c2sc(C(=O)NCc3ccccc3)nc2C1=O [Example 12]")
"188 to 189 °C"
>>> recorded_result("CN(C)CCNC1=C(Br)C(=O)c2sc(C(=O)N3CCN(C(=O)C4CCCO4)CC3)nc2C1=O (centres unmarked) [Example 21]")
"161 to 162 °C"
>>> recorded_result("CCNC(=O)c1nc2c(s1)C(=O)C=C(NCCN(C)C)C2=O [Example 24]")
"174 to 175 °C"
>>> recorded_result("CC(C)CNC(=O)c1nc2c(s1)C(=O)C=C(NCCN(C)C)C2=O [Example 7]")
"163 to 164 °C"
>>> recorded_result("O=C1C(NCCN2CCCC2)=CC(=O)c2sc(C(=O)N3CCN(C(=O)N4CCOCC4)CC3)nc21 [Example 17]")
"193 to 194 °C"
>>> recorded_result("COc1ccc(NC(=O)c2nc3c(s2)C(=O)C=C(NCCN(C)C)C3=O)cc1F [Example 35]")
"199 to 200 °C"
